Tested on: MS2 coat protein
Assay: apparent KD of MS2 coat protein; designed switch direction (-1 OFF switch, 1 ON switch): -1; higher = weaker reporter binding
Details: input ligand: none
observedProperty: apparent KD of MS2 coat protein
// unit must come after the numeric part

GGCGGACAUGAGGAUCACCCAUGUUAGGAUAUGGUGCGAUCGUCGAUAGACGAUAGCACCAGAAGGGACACGCC [Mat - Exclusion 1 - Eli Mod - D2] (Eterna round: R97, puzzle: Exclusion 1): 16.9 nM
GUAAUUAAUGUAGGAUAUGCAAGGCGAACCUAAGCAGAAGGACAUGAGGAUCACCCAUGUAAUGCGGUCUGCGUACAGAUCGCU [salish99_ExNG1_r4_007] (Eterna round: R96, puzzle: Exclusion NG 1): 24.2 nM
UAUUCGCAAGCGAGAUCCCACAUGAGGAUCACCCAUGUGCUCGUCUUAUAAGGUACUGUGACGAGAGUCACGGUACC [Mat - Sensor, turn-off var - Eli Mod - D82] (Eterna round: R97, puzzle: Sensor, turn-off variant 1): 14.7 nM
CUAAAUCAUGUAGGAUAUGCGUGGCGAAGCUAUGCAGAAGGACAUGAGGAUCACCCAUGUCAUUCCGUCUGCGUACAGACGGGA [Mat - Exclusion NG 1 - Mod of JL - D48] (Eterna round: R96, puzzle: Exclusion NG 1): 28.6 nM
AAUUUACAUGAGGAUCACCCAUGUGAGGAUAUAUGCAAACAAUUUUUAUUAAUAAAGCAUAGAAGGCGCGUGAU [JR_Exc1_Sub043] (Eterna round: R97, puzzle: Exclusion 1): 65.7 nM

### Prompt Read the entry CCAGUGUAAGGAUAUGUAUACGUCUCUCUGGUAUGAGGGCGGCAGAAGGUACAUGAGGAUCACCCAUGUCAUAU [Eternabot (L2) Solution 94] (Eterna round: R97, puzzle: Exclusion 4) and write its reported apparent KD of MS2 coat protein.
### Response 22.5 nM

### Prompt Read the entry CUCCUCAUGACGCCUAAACACAUGAGGAUCACCCAUGUACAGGCUUUUUGUCGUCUUAUAAUAAAACCGAGGAUACG [Orlaorusti] (Eterna round: R96, puzzle: Sensor v3, turn-off variant 1) and write its reported apparent KD of MS2 coat protein.
### Response 23.2 nM

### Prompt Read the entry GGGUACAAGCUAAGAUCCUACAUGAGGAUCACCCAUGUGGUCCGGUGACGUGAGUCACCGGACUUAGCUCGUCUUGU [salish99_S_TOV1_R5_003] (Eterna round: R97, puzzle: Sensor, turn-off variant 1) and write its reported apparent KD of MS2 coat protein.
### Response 61.3 nM

---

System: MS2 coat protein
Test: apparent KD of MS2 coat protein; designed switch direction (-1 OFF switch, 1 ON switch): -1; higher = weaker reporter binding
Conditions: input ligand: none
observedProperty: apparent KD of MS2 coat protein (µM)
The figure you give is taken to be in µM; do not add the unit.

UAUUAGCAAGUGAGAUCCGACAUGAGGAUCACCCAUGUGCUCGUCUUAUAAGCUAAUAUAAGAAAACUUAUAUUAGC [Elimod 7 - Jieux - Sensor, turn-off variant 1] (Eterna round: R97, puzzle: Sensor, turn-off variant 1): 0.284

With those in mind, consider the next sequence.
### Prompt For MS2 coat protein, give the measured apparent KD of MS2 coat protein of the entry CGAUCACAUGAGGAUCACCCAUGUGAGGAUAUAAUAACGCGGCGUGAGCACGGGAAUUUUAGAAGGCACACGGU [Eternabot (Original) Solution 42] (Eterna round: R97, puzzle: Exclusion 1)
### Response 0.013
